Assay: StAR promoter reporter inhibitors, counter-screen for LRH-1 inverse agonist project, cell-based, luminescence, high throughput (AID 651611)
Conditions: StAR promoter luciferase reporter counterscreen, at 3.6 µM, active compounds read high
inhibition values, listed per item
Numeric answer only, unit % assumed.

Here are 5 compounds together with their reported answers.
>  <compound>
Nc1nc2ccc(Cl)cc2cc1C(=O)NCc1ccc(Oc2ccccc2)cc1

>  <units symbol>
%

>  <observed>
14.7

$$$$
>  <compound>
Cn1nccc1C(=O)NC1CCCc2c1cnn2-c1ccc(F)cc1F (stereo unspecified)

>  <units symbol>
%

>  <observed>
20.2

$$$$
>  <compound>
O=C(CSc1ncnc2c1cnn2-c1ccccc1)Nc1ccc2c(c1)OCO2

>  <units symbol>
%

>  <observed>
11

$$$$
>  <compound>
COc1ccc(-n2c(-c3ccc(Br)cc3)c[n+]3c2CCc2ccccc2-3)cc1

>  <units symbol>
%

>  <observed>
22.1

$$$$
>  <compound>
O=C(NC1CCC(CC2CCC(NC(=O)C(Cl)Cl)CC2)CC1)C(Cl)Cl (stereo unspecified)

>  <units symbol>
%

>  <observed>
6.07

$$$$

Form field inhibition, entry `C/C(=N\NC(N)=S)c1ccc(Cl)s1` : 16.8

----------
System: transactivating tegument protein VP16 (Human herpesvirus 1), Gal4-VP16 luciferase reporter
Test: VP16 transactivation inhibitors, counter-screen for SRC3 inhibitor project, cell-based, luminescence, high throughput (AID 588794)
Details: mammalian cells, VP16-driven luciferase reporter luminescence; at 3.6 µM; active compounds read high
Calls of active or inactive are those of the source. No stated cut-off is given here; in the data, active means inhibition above about 30%; inactive means the rest.
outcome measure: inhibition

Here are 5 compounds together with their reported answers.
>  <compound>
O=C(Nc1nc(-c2ccc3ccccc3c2)cs1)C1CCN(S(=O)(=O)c2cccs2)CC1

>  <target desc>
transactivating tegument protein VP16 (Human herpesvirus 1), Gal4-VP16 luciferase reporter

>  <inhibition>
32.2% (active)

$$$$
>  <compound>
CCOc1cc(C(N)=O)cc(Br)c1OC

>  <target desc>
transactivating tegument protein VP16 (Human herpesvirus 1), Gal4-VP16 luciferase reporter

>  <inhibition>
20.8% (inactive)

$$$$
>  <compound>
Cc1ccnc2c1ccc1c(C)ccnc12

>  <target desc>
transactivating tegument protein VP16 (Human herpesvirus 1), Gal4-VP16 luciferase reporter

>  <inhibition>
54.3% (active)

$$$$
>  <compound>
CC(=O)NC(c1ccc(C)cc1)c1cc(Cl)c2cccnc2c1O (stereo unspecified)

>  <target desc>
transactivating tegument protein VP16 (Human herpesvirus 1), Gal4-VP16 luciferase reporter

>  <inhibition>
22.3% (inactive)

$$$$
>  <compound>
Cc1ccc(/C=C2\SC(=S)N(CCCC(=O)Nc3ccccn3)C2=O)cc1

>  <target desc>
transactivating tegument protein VP16 (Human herpesvirus 1), Gal4-VP16 luciferase reporter

>  <inhibition>
33.9% (active)

$$$$

Form field inhibition, entry CC1(C)C2CCC(C2)C1C/C=N/NC(N)=S (stereo unspecified) : 13.4% (inactive)

----------
Test: VP16 transactivation reporter inhibitors, counter-screen for LRH-1 inverse agonist project, cell-based, luminescence, high throughput (AID 651615)
Conditions: Gal4-VP16 luciferase reporter cells, at 3.6 µM
Activity calls are given as the source filed them. No stated cut-off is given here; in the data, active means inhibition above about 33%; inactive means the rest.
Choose one outcome from this list and give only that: active, inactive

>  <compound>
CN(C)S(=O)(=O)c1ccc(C(=O)NCc2ccc3[nH]c4c(c3c2)CCCC4)cc1

>  <assigned class>
inactive

$$$$

Switching to the query record.
Recorded call for CC1CCC/C=C/C(=O)c2c(O)cc(O)cc2CC(=O)O1 (centres undefined) ?
inactive

Data provenance is PubChem BioAssay.
